- Test system: NCI-H226 lung
- Assay Summary: NCI tumour cell line growth inhibition, 48 h
Reported values of TGI for individual entries

[
  {
    "Compound": "NC(=O)C(=O)C1C(=O)N(c2ccccc2)N=C1N (configuration not stated)",
    "TGI": "> 100 µM"
  },
  {
    "Compound": "Cc1cccc(Nc2nc3ccccc3nc2NS(=O)(=O)c2ccccc2)c1",
    "TGI": "> 100 µM"
  },
  {
    "Compound": "CCCCCCCCCCCCCCCCCCOCC(C[N+]1(C)CCC(O)CC1)OCC (configuration not stated)",
    "TGI": "21.4 µM"
  },
  {
    "Compound": "CCC[n+]1cc2cc3c(cc2c2c1-c1cc4c(cc1C2)OCO4)OCO3 (tested in a mixture with another compound)",
    "TGI": "7.96 µM"
  }
]

// query Look up TGI for this compound: `COc1ccc(NC(=O)c2oc3cc(O)ccc3c(=O)c2C)c([N+](=O)[O-])c1`
// result > 100 µM

// query # query: TGI of entry `CSc1ncc2c(C#N)c3[nH]c4ccccc4n3c(=O)c2n1`
// result > 100 µM

// query Entry under review: `O=C1CC(Cc2n[nH]c3c2CCCC3)CC(=O)N1` . Reported TGI?
// result > 100 µM
